# Tested on: U2OS
# procedure-summary: Multiplex assay against U2OS
# Type: toxicity, cell-based
# test-settings: human, 48 h, 10 µM, compound concentration 10 uM, replicate 1
Classification field: y = Population Mitochondria Different-Phenotype (%) at or over 6%; n = Population Mitochondria Different-Phenotype (%) under 6%.

# compound, category-label
data = [
    ("CC(C)C[C@H](CO)Nc1nc(S[C@@H](C)c2ccccc2)nc2nc(N)sc12", "y"),
    ("CCn1c(-c2nc3cc(C(=O)N4CCCC(N)C4)ccc3n2C)cc2ccccc21.Cl (configuration not stated)", "y"),
    ("CCc1nn2c(C)cc(C)nc2c1Cc1ccc(-c2nnc(C3CCNCC3)o2)cc1", "y"),
    ("CN1CCC(C(=O)c2cccc(NC(=O)c3c(F)cc(F)cc3F)n2)CC1", "n"),
    ("CCCCCCNC(=O)Nc1ccc(S(=O)(=O)Nc2ccc(CCNC[C@H](O)COc3ccc(O)cc3)cc2)cc1", "n"),
    ("CN1C[C@H](C(=O)N[C@]2(C)O[C@@]3(O)[C@@H]4CCCN4C(=O)[C@H](Cc4ccccc4)N3C2=O)C[C@@H]2c3cccc4[nH]cc(c34)C[C@H]21.CS(=O)(=O)O [DIHYDROERGOTAMINE MESYLATE]", "n"),
]

* * *

# Test system: Fibroblast
# procedure-summary: Multiplex assay against human fibroblast
# Type: toxicity, cell-based
# test-settings: 48 h, 10 µM, compound concentration 10 uM, replicate 2
Decision: Population Hoechst High Intensity Objects (%) beneath 3% gives 1.0; Population Hoechst High Intensity Objects (%) meeting or exceeding 3% gives 0.0.

# compound, category-label
rows = [
    ("Cl.Cl.OCCOCCN1CCN(C(c2ccccc2)c2ccc(Cl)cc2)CC1 (stereo unspecified) [HYDROXYZINE HYDROCHLORIDE]", 0.0),
    ("COCCCN1CCC(NC(=O)c2cc(Cl)c(N)c3c2OCC3)CC1 [PRUCALOPRIDE]", 0.0),
    ("S=C(NCCCc1c[nH]cn1)NCCCN(Cc1ccc(Cl)c(Cl)c1)c1ccc(Br)cn1", 0.0),
    ("Cn1cc(C(=O)OCC2CCN(CCNS(C)(=O)=O)CC2)c2ccccc21", 0.0),
    ("COc1ccc2[nH]c(I)c(CCNC(C)=O)c2c1 [IODOMELATONIN]", 1.0),
    ("C=CCN1C[C@H](C(=O)N(CCCN(C)C)C(=O)NCC)C[C@@H]2c3cccc4[nH]cc(c34)C[C@H]21 [CABERGOLINE]", 0.0),
    ("Cc1cc(-c2ccc3c(c2)CC[C@H]3N2CC3(CCN(C(=O)Cc4cn5cc(C)sc5n4)CC3)C2)ncn1 [PF-5190457]", 1.0),
    ("COc1ccc2c(c1OCc1ccccc1)C[C@@H](C(=O)O)N(C(=O)C(c1ccccc1)c1ccccc1)C2 [OLODANRIGAN]", 0.0),
    ("Cc1c(Cc2ccc3ccccc3n2)c2cc(F)ccc2n1CC(=O)O [TIMAPIPRANT]", 1.0),
]

* * *

# System: U2OS
# procedure-summary: Multiplex assay against U2OS
# Type: toxicity, cell-based
# test-settings: human, 12 h, 1 µM, compound concentration 1 uM, replicate 2
Population Healthy Nuclei (%) values, listed per item
assay-endpoint: Population Healthy Nuclei (%)

# compound-string, scale-unit, observed
data = [
    ("Cc1cc(O)c(-c2ccc([C@@H](C)CN(C)C)cc2)c2c1[nH]c(=O)c1sccc12", "%", 63),
    ("Cc1c(Cc2ccc3ccccc3n2)c2cc(F)ccc2n1CC(=O)O", "%", 70),
    ("Nc1nc(-c2ccco2)c2cnn(Cc3ccccc3F)c2n1", "%", 64),
    ("CCc1nn2c(C)cc(C)nc2c1Cc1ccc(-c2nnc(C3CCNCC3)o2)cc1", "%", 84),
    ("CC(C)(C)c1ccc(CSc2cnn(C(C)(C)C)c(=O)c2Cl)cc1", "%", 81),
    ("C[C@H](NC(=O)CNC(=O)c1cccc(Cl)c1)c1ccccc1", "%", 68),
    ("S=C(NCCCc1c[nH]cn1)NCCCN(Cc1ccc(Cl)c(Cl)c1)c1ccc(Br)cn1", "%", 68),
    ("Cc1cc(=O)n(C)c2cc(N3C(=O)CC[C@H](NS(=O)(=O)CC(C)C)[C@H]3c3ccc(Cl)cc3)ccc12", "%", 68),
    ("OCCCNc1cc(-c2ccnc(Nc3cccc(Cl)c3)n2)ccn1", "%", 51),
]
